%Inh: recorded values
# System: CSF1R
# measurement_setup: concentration: 1 μM,replicates: in singlicate; n = 1;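 also: KINOMEscan kinase panel screen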
The response must be a number in % with no trailing unit.

Consider the reported %Inh for these compounds:
CS(=O)c1ccc(-c2coc3ccc(-c4n[nH]c(=O)o4)cc23)cc1 (stereo not shown)    4
CN(c1cccc(CNc2nc(Nc3ccc4c(c3)CC(=O)N4)ncc2C(F)(F)F)c1)S(C)(=O)=O    15
Cl.c1ccc(Oc2ccc(Nc3ccnc4cc(-c5ccc(CN6CCNCC6)o5)ccc34)cc2)nc1 [GW567142]    43

// switching to the query compound
Query: # return recorded %Inh for input Cc1ccc(C(=O)Nc2ccc(Oc3ccc4nc(NC(=O)C5CC5)cn4c3)c(F)c2)c(=O)n1-c1ccccc1
Reply: 100

----------
# Test system: CAMK1G
# measurement_setup: concentration: 1 μM,replicates: in singlicate; n = 1
%Inh: recorded values
The response must be a number in % with no trailing unit.

Consider the reported %Inh for these compounds:
CS(=O)(=O)Nc1ccc(-c2ccnc3[nH]ccc23)cc1 [GSK993273]    30
CN(c1ccccc1CNc1nc(Nc2ccc3c(c2)CC(=O)N3)ncc1C(F)(F)F)S(C)(=O)=O    0
CSc1nccc(-c2c(-c3ccc(F)cc3)ncn2CCCN2CCOCC2)n1.Cl [SB-217146]    0
Cc1n[nH]c2cc(Nc3ccnc(Nc4cccc(CN5CCOCC5)c4)n3)ccc12 [GW682569]    1

Query: # return recorded %Inh for input CS(=O)c1ccc(-c2coc3ccc(-c4n[nH]c(=O)o4)cc23)cc1 (stereo not drawn)
Reply: 12

Query: # return recorded %Inh for input Cc1ccc(C(=O)Nc2ccc(Oc3ccc4nc(NC(=O)C5CC5)cn4c3)c(F)c2)c(=O)n1-c1ccccc1
Reply: 0

Query: # return recorded %Inh for input c1ccc(Oc2ccc(Nc3ccnc4ccc(-c5ccccn5)cc34)cc2)cc1 [GW407034]
Reply: 5

Query: # return recorded %Inh for input COc1cc2ncn(-c3cc(OCC4CCCCC4)c(C(N)=O)s3)c2cc1OC [GSK204559]
Reply: 11

Query: # return recorded %Inh for input COC(=O)Nc1nc2cc(Oc3ccc(NC(=O)Nc4cc(C(F)(F)F)ccc4Cl)cc3)ccc2[nH]1.Cl [GW697465]
Reply: 0

----------
%Inh: recorded values
# Test system: LOK
# Construct: gene STK10
# measurement_setup: concentration: 1 μM,replicates: in singlicate; n = 1

Consider the reported %Inh for these compounds:
C[C@@H]1CNc2c(sc3ccc4nc(-c5ccncc5)ccc4c23)C(=O)N1    14%
COc1ccc(Nc2nccc(N3CCC(NC(=O)c4cccc(C#N)c4)C3)n2)cc1 (stereo not shown)    0%

Query: # return recorded %Inh for input CN(c1ccc2c(c1)nc(NCc1ccc(F)cc1)n2C)c1ccnc(Nc2ccc(CS(C)(=O)=O)cc2)n1.Cl
Reply: 99.5%

Query: # return recorded %Inh for input Cn1ccc2ncnc(Oc3ccc(NC(=O)Nc4cccc(C(F)(F)F)c4)c(F)c3)c21
Reply: 99.9%

----------
# Tested on: JAK2(JH1domain-catalytic)
# measurement_setup: concentration: 1 μM,replicates: in singlicate; n = 1
Entries whose %Inh is below 20% take YES; entries at or above 20% take NO.

Worked examples, 10 compounds total:
O=C(Nc1cccc(C(F)(F)F)c1)c1cccc(Oc2ccc3nccn3n2)c1    NO
Cl.c1ccc(Oc2ccc(Nc3ccnc4cc(-c5ccc(CN6CCNCC6)o5)ccc34)cc2)nc1    NO
CC(=O)Nc1nc2cnc(Nc3cc(NC(=O)c4cccc(CC(C)(C)C#N)c4)ccc3C)nc2s1    YES
COc1cc2c(Nc3ccc(NC(=O)c4ccccc4)cc3)ncnc2cc1OCCCN1CCOCC1    YES
CSc1nccc(-c2c(-c3ccc(F)cc3)ncn2CCCN2CCOCC2)n1.Cl    NO
CN(c1cccc(CNc2nc(Nc3ccc4c(c3)CC(=O)N4)ncc2C(F)(F)F)c1)S(C)(=O)=O    NO
CC(C)S(=O)(=O)N1CCN(Cc2ccc3c(c2)nc(NC(=O)c2ccsc2)n3C[C@H](O)c2ccccc2)CC1    NO
Cn1ccc2ncnc(Oc3ccc(NC(=O)Nc4ccnc(C(F)(F)F)c4)c(Cl)c3)c21    YES
CS(=O)(=O)Nc1ccc(-c2ccnc3[nH]ccc23)cc1    NO
C[C@@H]1CNc2c(sc3ccc4nc(-c5ccncc5)ccc4c23)C(=O)N1    YES

Query: hey, is %Inh for Cn1ccc2ncnc(Oc3ccc(NC(=O)Nc4cc(C(C)(C)C)on4)c(Cl)c3)c21 lower than 20% or not?
Reply: YES

Query: hey, is %Inh for O=c1[nH]cc(-c2ccc(O)cc2)c2sc(-c3ccncc3)cc12 lower than 20% or not?
Reply: NO

Query: hey, is %Inh for CN1CCN(CCCNc2nccc(-c3c(-c4ccc(F)cc4)nn4cc(C(N)=O)ccc34)n2)CC1 lower than 20% or not?
Reply: YES

Query: hey, is %Inh for CCn1c(-c2nonc2N)nc2cncc(CNC3CCNCC3)c21.Cl lower than 20% or not?
Reply: YES

Query: hey, is %Inh for CCn1c(-c2nonc2N)nc2cncc(Br)c21 lower than 20% or not?
Reply: NO
